Values were extracted from patent US11344510B2.

System: dopamine transporter (DAT) (Homo sapiens, UniProt Q01959)
Sequence (Q01959 whole entry, species assumed): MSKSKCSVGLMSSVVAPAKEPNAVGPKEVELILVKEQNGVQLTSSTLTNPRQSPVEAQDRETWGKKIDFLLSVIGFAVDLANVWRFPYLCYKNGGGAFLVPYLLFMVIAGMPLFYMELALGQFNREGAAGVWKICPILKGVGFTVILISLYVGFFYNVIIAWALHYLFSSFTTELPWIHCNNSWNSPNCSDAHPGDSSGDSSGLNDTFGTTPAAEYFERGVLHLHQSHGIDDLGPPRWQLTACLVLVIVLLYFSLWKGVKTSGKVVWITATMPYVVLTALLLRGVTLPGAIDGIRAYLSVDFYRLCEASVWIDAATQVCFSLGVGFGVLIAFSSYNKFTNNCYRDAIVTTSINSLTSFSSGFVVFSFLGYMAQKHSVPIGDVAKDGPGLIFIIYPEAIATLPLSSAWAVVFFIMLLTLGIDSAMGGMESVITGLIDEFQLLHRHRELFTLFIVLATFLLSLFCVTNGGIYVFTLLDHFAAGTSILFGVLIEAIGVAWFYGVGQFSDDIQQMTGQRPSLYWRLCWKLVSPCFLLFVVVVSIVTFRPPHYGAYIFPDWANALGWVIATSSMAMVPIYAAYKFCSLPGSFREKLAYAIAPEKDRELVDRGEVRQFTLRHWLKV
Assay remarks: Fluorescent substrate uptake inhibition, DAT
Strictly below 6 µM in IC50: fulfilled. Otherwise: not fulfilled.

Examples with answers:
Identify whether the compound O=C1CCCCC1(c1ccccc1)N1CCCC1 (racemic) [Compound 27rac] records IC50 below 6 µM.
not fulfilled

# TODO verify IC50 < 6 µM strictly for this compound: O=C1CCCC[C@@]1(c1ccccc1)N1CCC1 [Compound 84S]
not fulfilled

Item O=C1CCCC[C@@]1(c1ccccc1)N1CCCC1 [Compound 27S] : IC50 beneath 6 µM, strictly?
not fulfilled

Please indicate whether the reported IC50 of O=C1CCCC[C@@]1(c1ccccc1)N1CCCCC1 [Compound 26S] is strictly below 6 µM.
not fulfilled

---
Lab log: compare recorded IC50 with 6 µM; is it strictly lower for O=C1CCCC[C@]1(c1ccccc1)N1CCCC1 [Compound 27R] ?
not fulfilled

Hello, I'm reviewing records and need to know if IC50 of O=C1CCCC[C@]1(c1ccccc1)N1CCC1 [Compound 84R] is below 6 µM. Could you check?
not fulfilled

Hi there! Is IC50 for O=C1CCCC[C@]1(c1ccccc1)N1CCCCC1 [Compound 26R] below 6 µM, do you know?
fulfilled

I'd appreciate it if you could check whether CC(C)N[C@]1(c2ccccc2)CCCCC1=O [Compound 28S] has IC50 smaller than 6 µM.
fulfilled
